Data origin: patent US5721234A

testTarget: glycine site of the NMDA receptor (Rattus norvegicus, UniProt P35439)
Construct: from tissue
methodSummary: Glycine site of the NMDA receptor binding affinity (Jones et al.)
testContext: Table 1, cyclohexyl-fused analogs
recordedEndpoint: IC50

1) CNC1CCc2c([N+](=O)[O-])cc3[nH]c(=O)c(=O)[nH]c3c2C1 (stereo not drawn): > 1 µM
2) O=C(CCc1ccc(O)cc1)NC1CCc2c([N+](=O)[O-])cc3[nH]c(=O)c(=O)[nH]c3c2C1 (stereo not drawn): > 1 µM

Kindly consider the entry below.
State, in one line, measured IC50 of O=c1[nH]c2cc(Br)c3c(c2[nH]c1=O)CC(NCc1ccccc1)CC3 (stereo not drawn) > 100 µM

====

testTarget: glycine site of the NMDA receptor (Rattus norvegicus, UniProt P35439)
Construct: from tissue
methodSummary: Glycine site of the NMDA receptor binding affinity (Jones et al.)
testContext: Table 2, cyclopentyl-fused analogs
Structures can show the parent of a compound that is named as a salt.
recordedEndpoint: IC50

1) O=C(NC1Cc2c([N+](=O)[O-])cc3[nH]c(=O)c(=O)[nH]c3c2C1)C1CCCN1 (stereo not shown): > 1 µM
2) O=C(NC1Cc2c([N+](=O)[O-])cc3[nH]c(=O)c(=O)[nH]c3c2C1)C1CCNCC1 (stereo not shown) [Example 35, hydrochloride]: < 1 µM
3) CN(C(=O)C1Cc2c([N+](=O)[O-])cc3[nH]c(=O)c(=O)[nH]c3c2C1)c1ccccc1 (stereo not shown): > 100 µM
4) O=C(NC1Cc2c([N+](=O)[O-])cc3[nH]c(=O)c(=O)[nH]c3c2C1)c1ccccn1 (stereo not shown): > 1 µM
5) O=C(NC1Cc2c([N+](=O)[O-])cc3[nH]c(=O)c(=O)[nH]c3c2C1)c1ccoc1 (stereo not shown): > 1 µM

Output measured IC50 for this item: O=C(NC1Cc2c([N+](=O)[O-])cc3[nH]c(=O)c(=O)[nH]c3c2C1)C1(O)OC(O)C(O)C1O (stereo not shown) > 1 µM

Tell us which IC50 value is on record for O=C(NC1Cc2c([N+](=O)[O-])cc3[nH]c(=O)c(=O)[nH]c3c2C1)c1cccnc1 (stereo not shown) > 1 µM
